study_target: IFNγ receptor subunit 1 (IFNγR1) (Mus musculus)
Construct: synthetic Wt IFNγR1 peptide, CRAC motif, residues 269 to 280 ([…])
method_summary: SPR (BIAcore […], L1 chip) of peptide over immobilized phosphatidylcholine/cholesterol liposomes
outcome_measure: Kd
Please give the number followed by its unit.

Documented Kd of CC(C)CCC[C@@H](C)[C@H]1CC[C@H]2[C@@H]3CC=C4C[C@@H](O)CC[C@]4(C)[C@H]3CC[C@]12C : 4.27 nM
